tgt: T1, hFc-human LIGHT (human)
T1 construct: also called hFc-huLIGHT
assay_method_text: competition ELISA, LTβR-His coated, hFc-huLIGHT added
Parameter IC50: see the listing below.
Value expressed in nM; do not type the unit.

binder | IC50, nM
hum_LT-m85-7 (antibody, human IgG4, V domains shown, humanized from LT-m85) VH: QVQLVQSGAEVKKPGASVKVSCKASGYTFTSYNVHWVRQAPGQGLEWIGAVYPGNGDTSYNQKFKGRATLTADKSTSTVYMELSSLRSEDTAVYYCARGSYYYTSSYFDHWGQGTLVTVSS VL: DIVLTQSPDSLAVSLGERATINCKASQSVDFDGDSYMNWYQQKPGQPPKLLIYTASNLESGIPDRFSGSGSGTDFTLTISSLQAEDVAVYYCQQSYEDPFTFGQGTKVEIK | 0.223
hum_LT-m85-2 (antibody, human IgG4, V domains shown, humanized from LT-m85) VH: QVQLVQSGAEVKKPGASVKVSCKASGYTFTSYNVHWVRQAPGQGLEWMGAVYPGNGDTSYNQKFKGRATLTADKSTSTAYMELSSLRSEDTAVYYCARGSYYYTSSYFDHWGQGTLVTVSS VL: EIVMTQSPATLSVSPGERATLSCKASQSVDFDGDSYMNWYQQKPGQPPRLLIYTASNLESGIPARFSGSGSGTEFTLTISSLQSEDFAVYYCQQSYEDPFTFGQGTKLEIK | 0.265
hum_LT-m85-3 (antibody, human IgG4, V domains shown, humanized from LT-m85) VH: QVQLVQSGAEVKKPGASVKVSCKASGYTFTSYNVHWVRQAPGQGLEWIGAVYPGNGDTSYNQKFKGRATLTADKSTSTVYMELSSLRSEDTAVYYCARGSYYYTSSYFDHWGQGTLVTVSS VL: EIVMTQSPATLSVSPGERATLSCKASQSVDFDGDSYMNWYQQKPGQPPRLLIYTASNLESGIPARFSGSGSGTEFTLTISSLQSEDFAVYYCQQSYEDPFTFGQGTKLEIK | 0.282

Now for the binder whose IC50 we want.
Consider the binder hum_LT-m85-4 (antibody, human IgG4, V domains shown, humanized from LT-m85) VH: QVQLVQSGAEVKKPGASVKVSCKASGYTFTSYNVHWVRQAPGQGLEWIGAVYPGNGDTSYNQKFKGRATLTADKSTSTAYMELSSLRSEDTAVYYCARGSYYYTSSYFDHWGQGTLVTVSS VL: EIVMTQSPATLSVSPGERATLSCKASQSVDFDGDSYMNWYQQKPGQAPRLLIYTASNLESGIPARFSGSGSGTEFTLTISSLQSEDFAVYYCQQSYEDPFTFGQGTKLEIK and give its measured IC50.
0.308

Values compiled from patent EP4596580A1.
